tested on: Staphylococcus aureus 133; assay: Determination of minimum inhibitory concentration (MIC), liquid dilution test; type: cell-based; details: Staphylococcus aureus, 133; liquid dilution test, Isosensitest medium, 10^5 organisms per ml, 37° C., 18-24 hours; lowest concentration with no visible growth; read-out: MIC Staphylococcus aureus 133
Value kind: MIC (µM)
Give just the number in µM; leave the unit off.

Here is how some compounds turned out for MIC.
• CC(C)[C@H](NC(=O)C[C@H](NC(=O)Nc1ccccc1)c1ccccc1)C(=O)[C@@H]1C(=O)NC(=O)[C@H]1C = 62.5
• CC(C)[C@H](NC(=O)C[C@H](NC(=O)NCc1ccccc1)c1ccccc1)C(=O)[C@@H]1C(=O)NC(=O)[C@H]1C = 3.9
• CC(C)[C@H](NC(=O)C[C@H](NS(=O)(=O)/C=C/c1ccccc1)c1ccccc1)C(=O)[C@@H]1C(=O)NC(=O)[C@H]1C = 7.8
• CC(C)[C@H](NC(=O)CC(NC(=O)Nc1ccc(Cl)c(C(F)(F)F)c1)c1ccccc1)C(=O)[C@@H]1C(=O)NC(=O)[C@H]1C (some centres unmarked) = 7.8

MIC measured on `CC(C)[C@H](NC(=O)C[C@H](NC(=O)N(C)c1ccccc1)c1ccccc1)C(=O)[C@@H]1C(=O)NC(=O)[C@H]1C` = 15.6

Value of MIC reported for the compound `COc1ccc(NC(=O)N[C@@H](CC(=O)N[C@H](C(=O)[C@@H]2C(=O)NC(=O)[C@H]2C)C(C)C)c2ccccc2)cc1` is 62.5

Query C[C@@H]1C(=O)NC(=O)[C@H]1C(=O)C(NC(=O)C[C@H](NC(=O)OC(C)(C)C)c1ccccc1)C1CCCC1 (some centres unmarked) yields MIC of 31.3

MIC recorded for this compound, CC(C)[C@H](NC(=O)CC(NC(=O)Nc1cccc2ccccc12)c1ccccc1)C(=O)[C@@H]1C(=O)NC(=O)[C@H]1C (some centres unmarked) , is 7.8
